Molecular target: CCK receptors of rat pancreas (Rattus norvegicus, UniProt P30551)
Construct: of rat pancreas plasma membranes; animals from IFFA CREDO)
Sequence (P30551 whole entry): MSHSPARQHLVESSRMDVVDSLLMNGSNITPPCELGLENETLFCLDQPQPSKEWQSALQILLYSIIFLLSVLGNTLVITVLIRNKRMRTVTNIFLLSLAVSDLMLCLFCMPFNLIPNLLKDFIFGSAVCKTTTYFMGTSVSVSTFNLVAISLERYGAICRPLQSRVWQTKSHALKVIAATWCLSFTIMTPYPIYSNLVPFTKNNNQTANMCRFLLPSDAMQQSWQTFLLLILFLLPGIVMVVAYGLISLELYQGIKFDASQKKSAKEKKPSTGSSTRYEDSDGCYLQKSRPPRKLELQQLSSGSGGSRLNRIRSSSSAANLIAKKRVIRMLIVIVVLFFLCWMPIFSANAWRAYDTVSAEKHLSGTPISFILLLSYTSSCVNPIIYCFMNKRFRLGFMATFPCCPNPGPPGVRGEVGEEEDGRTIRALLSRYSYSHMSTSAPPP
Experiment: Inhibition of binding of sulphated [125I]-CCK8 to receptors of rat pancreas plasma membranes
Class boundaries, taken from values of IC50, are as follows: low interval (below 4 nM), middle interval (4 nM to below 40 nM), high interval (40 nM or more)

[
  {
    "compound": "O=C(N[C@H]1N=C(c2ccccc2)c2cccc3c2N(CC3)C1=O)c1cc2ccccc2[nH]1 [Ie]",
    "assayed-system": "CCK receptors of rat pancreas (Rattus norvegicus, UniProt P30551)",
    "category": "low interval"
  },
  {
    "compound": "O=C(N[C@@H]1N=C(c2ccccc2)c2cccc3c2N(CC3)C1=O)c1cc2ccccc2[nH]1 [If]",
    "assayed-system": "CCK receptors of rat pancreas (Rattus norvegicus, UniProt P30551)",
    "category": "high interval"
  },
  {
    "compound": "O=C(NC1N=C(c2ccccc2)c2cccc3c2N(CC3)C1=O)c1cc2ccccc2[nH]1 (stereo not drawn) [Ia]",
    "assayed-system": "CCK receptors of rat pancreas (Rattus norvegicus, UniProt P30551)",
    "category": "middle interval"
  },
  {
    "compound": "O=C(NC1N=C(c2ccccc2F)c2cc(Cl)cc3c2N(CC3)C1=O)c1cc(Cl)cc(Cl)c1 (stereo not drawn) [Im]",
    "assayed-system": "CCK receptors of rat pancreas (Rattus norvegicus, UniProt P30551)",
    "category": "middle interval"
  },
  {
    "compound": "O=C(NC1N=C(c2ccccc2)c2cccc3c2N(CC3)C1=O)c1cccc(I)c1 (stereo not drawn) [Ic]",
    "assayed-system": "CCK receptors of rat pancreas (Rattus norvegicus, UniProt P30551)",
    "category": "high interval"
  },
  {
    "compound": "O=C(NC1N=C(c2ccccc2)c2cccc3c2N(CC3)C1=O)c1ccc(Cl)cc1 (stereo not drawn) [Ib]",
    "assayed-system": "CCK receptors of rat pancreas (Rattus norvegicus, UniProt P30551)",
    "category": "middle interval"
  },
  {
    "compound": "O=C(NC1N=C(c2ccccc2F)c2cc(Cl)cc3c2N(CC3)C1=O)c1cc2cc(Cl)ccc2[nH]1 (stereo not drawn) [Il]",
    "assayed-system": "CCK receptors of rat pancreas (Rattus norvegicus, UniProt P30551)",
    "category": "middle interval"
  },
  {
    "compound": "O=C(NC1N=C(c2ccccc2F)c2cccc3c2N(CC3)C1=O)c1cc2ccccc2[nH]1 (stereo not drawn) [Ig]",
    "assayed-system": "CCK receptors of rat pancreas (Rattus norvegicus, UniProt P30551)",
    "category": "low interval"
  }
]

* * *

Target: CCK receptors of guinea-pig brain (Cavia porcellus)
Construct: of guinea-pig brain membranes; from tissue; host or cells: guinea-pig brain membranes (males; animals from COB LABO)
Sequence (H0VZC5 1-426): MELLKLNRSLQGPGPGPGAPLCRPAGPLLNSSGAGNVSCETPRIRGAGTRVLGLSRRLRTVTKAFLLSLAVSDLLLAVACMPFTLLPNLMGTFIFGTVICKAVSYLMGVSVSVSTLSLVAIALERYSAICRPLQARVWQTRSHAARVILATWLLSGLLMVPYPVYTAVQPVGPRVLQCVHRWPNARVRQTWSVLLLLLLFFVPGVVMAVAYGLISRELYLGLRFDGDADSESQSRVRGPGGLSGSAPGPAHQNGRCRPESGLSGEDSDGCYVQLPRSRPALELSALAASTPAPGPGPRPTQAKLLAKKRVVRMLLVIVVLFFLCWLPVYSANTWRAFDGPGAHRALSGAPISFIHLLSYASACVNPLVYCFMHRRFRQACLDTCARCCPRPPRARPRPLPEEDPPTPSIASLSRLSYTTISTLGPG
Test: Inhibition of binding of sulphated [125I]-CCK8 to receptors of guinea-pig brain membranes
Settings: guinea-pig brain membranes; read-out: Binding (IC50) [125I]-CCK8-SO4 Brain
measure-name: IC50 (µM)

[
  {
    "compound": "O=C(NC1N=C(c2ccccc2F)c2cc(Cl)cc3c2N(CC3)C1=O)c1cc2cc(Cl)ccc2[nH]1 (stereo not shown)",
    "assayed-system": "CCK receptors of guinea-pig brain (Cavia porcellus)",
    "measure-name": "IC50",
    "unit-abbreviation": "µM",
    "obs-value": 21.4
  },
  {
    "compound": "O=C(NC1N=C(c2ccccc2)c2cccc3c2N(CC3)C1=O)c1cccc(I)c1 (stereo not shown)",
    "assayed-system": "CCK receptors of guinea-pig brain (Cavia porcellus)",
    "measure-name": "IC50",
    "unit-abbreviation": "µM",
    "obs-value": 8.8
  },
  {
    "compound": "O=C(NC1N=C(c2ccccc2F)c2cc(Cl)cc3c2N(CC3)C1=O)c1cc(Cl)cc(Cl)c1 (stereo not shown)",
    "assayed-system": "CCK receptors of guinea-pig brain (Cavia porcellus)",
    "measure-name": "IC50",
    "unit-abbreviation": "µM",
    "obs-value": 25.4
  },
  {
    "compound": "O=C(NC1N=C(c2ccccc2)c2cccc3c2N(CC3)C1=O)c1ccc(Cl)cc1 (stereo not shown)",
    "assayed-system": "CCK receptors of guinea-pig brain (Cavia porcellus)",
    "measure-name": "IC50",
    "unit-abbreviation": "µM",
    "obs-value": 3.1
  }
]

* * *

Assay: Acute toxicity
Conditions: mouse, in vivo, male mice

[
  {
    "compound": "O=C(NC1N=C(c2ccccc2)c2cccc3c2N(CC3)C1=O)c1cc2ccccc2[nH]1 (stereo not shown)",
    "LD50": "> 1000 mg/kg"
  },
  {
    "compound": "CN1C(=O)C(NC(=O)c2cc3ccccc3[nH]2)N=C(c2ccccc2)c2ccccc21 (racemic) [IIa, reference compound]",
    "LD50": "> 600 mg/kg"
  },
  {
    "compound": "O=C(N[C@H]1N=C(c2ccccc2)c2cccc3c2N(CC3)C1=O)c1cc2ccccc2[nH]1",
    "LD50": "> 1000 mg/kg"
  },
  {
    "compound": "O=C(NC1N=C(c2ccccc2F)c2cccc3c2N(CC3)C1=O)c1cc2ccccc2[nH]1 (stereo not shown)",
    "LD50": "> 1000 mg/kg"
  }
]

meta.source: patent US4929614A
